Reference for the values: patent US20200279616A1

SYSTEM NAME: T1, HLA-DRB1*01:01 (biochemical MHC-peptide affinity assay) (human)
T1 chain 1: not shown
T1 chain 2: not shown
ASSAY NAME: biochemical MHC-peptide affinity assay
Could you please report measured Measured affinity for the items listed next?
Returns: string containing the numeric result and its unit.

Query string: Determine its reported Measured affinity: DRYEMEDGKVIER (modifications not checked)
Result string: 54 nM

Query string: Specify measured Measured affinity for DKKNIILEEGKEILVG (modifications not checked) .
Result string: 27 nM

Query string: Provide only the value of recorded Measured affinity for MPSFVPSDGRQAAD (modifications not checked)
Result string: 3 nM

Query string: Identify Measured affinity associated with the binder GLRYKKLHDPKGWIT (modifications not checked)
Result string: 30 nM
